Tested on: M14 melanoma
experiment_description: NCI tumour cell line growth inhibition, 48 h
Reported GI50 values for the following molecules.

compound_smiles: [Cl-].[O-]/N=C(\c1ccccc1)c1ccccn1.[O-]/N=C(\c1ccccc1)c1ccccn1.[O-]/N=C(\c1ccccc1)c1ccccn1.[Sm+3]
system: M14 melanoma
GI50: 19.6 µM
--
compound_smiles: CC(=O)[CH-]C(C)=O.CC(=O)[CH-]C(C)=O.[CH2-]CCC.[CH2-]CCC.[Sn+4]
system: M14 melanoma
GI50: 0.608 µM
--
compound_smiles: CN(C)CCCOc1ccc(-c2ccc3ncc4c(c3c2)n(C2CCOCC2)c(=O)n4C)cn1
system: M14 melanoma
GI50: 1.78 µM
--
compound_smiles: COc1cc(/C=C2\C(=O)Nc3cc(C)c(O)cc32)cc(OC)c1OC
system: M14 melanoma
GI50: 4.45 µM
